Assay: folding stability dG unfold from trypsin proteolysis; higher = more stable
Some sequences, each annotated with its measured folding stability dG unfold.
Give a bare numeral; the unit kcal/mol is implied.

Example entries begin here.
SAGGPTLKVKIYLPEEGKVIEFTFEAKKDEAEKIAKELEKLFPGYKLEGVKIFETPDSIELLAVASPESAGG [r13_196_TrMRF]: 3.26
SAGGGPVVLTDPVKTEKSPDGTTYTLTREVFYDPSRGEPLKVRFTLTKVTNYPDGVKTETLEEKEVALSAGG [r13_596_JUSTAS]: 0.816
SAGGSAGGSAGALPFKVKVVEVEVDGDEVTVKVVAELPTGTATVELKLGGKLETLTISPVSAGGSAGGSAGG [r17_45_TrMRF]: 1.49

Input: Suppose we examine the sequence SANFDKAPPIEVKTEVSSFPADEEKIDPKTGKKSKRKRTITPVTVTKDGKTYTSTTTTYPDGSTETTTSSAG [r14_225_JUSTAS] ; what folding stability dG unfold value has been reported?
Output: -0.0456

Input: Try the sequence SKIKILIAMTEDEIKKLAEELKKKGYEIKIKVKKIEKKKVKVKNKDGKTYEKEVVLVEVEIEIVPKGVKPSA [r9_991_TrROS_Hall]
Output: 2.73

Input: Try the sequence SAGGSAGGNWKVEIWPNGEQQEYTIDEIKKQLKNDIPPNYMIRVKGSGKWIPVRELLKEAGIPLSAGGSAGG [r6_937_TrROS]
Output: 0.382

Input: Try the sequence SAGGSAGGGWITIPIYIIKMKRTRRDPDGKPKPLDPNDPEDFEVVPPRPFRIPLPPEEAKKLLKSAGGSAGG [r6_219_TrROS]
Output: -0.542

Input: Try the sequence SAGGDVTISIMIFVWPGWTEEQYKEMAKEVAKTIARQLAQKNPDLNENIDIEDIEVTIIPMEGDPDYFSAGG [r13_128_TrROS]
Output: 1.91

Input: Try the sequence SAGGSAGGSAGGMPLVRIEVTNENGEKFTFIFESEEEAKAAAEALGVDVKIEKIPPGEEISAGGSAGGSAGG [r7_456_TrROS_Hall]
Output: 2.54

Input: Try the sequence SAGMSFTVTTVGSPGPTTPRVVIEPPDRVVVISRLPDGSYEVRYYDPSPPVELERRRLAPEEAIAELLSAGG [r19_188_JUSTAS]
Output: 0.385

Input: Try the sequence SAGGGFDPSKLKKEKTLTLTLPGNSETFTIELYLPEDGESTVVFSYNDKNYELTITKDSITLKPVSSSAGGS [r16_711_JUSTAS]
Output: 2.38

Input: Try the sequence SAGGSAGGEDRLLLRVEVIVGGVPFEPVLEVDHPELRELLEEGRVLVVELPGGAVGRLYAEPLASAGGSAGG [r6_478_TrMRF]
Output: 0.7

Input: Try the sequence SAGKTVEIKVTLKITRYEKLPDGSVKKEVKTLTITVTMSEEELNKEEIKNALKELLEKLPPDVKKIEITSAG [r5_849_TrROS_Hall]
Output: 2.8

Input: Try the sequence SAGGMMYLKLKVKNKNGEEIEVLIEFDEKTGKAYIYNKKTGKKIEMTLEELLKQENIEIEEIEPLPEPSAGG [r13_994_TrROS_Hall]
Output: 2.89

====

Experiment: folding stability dG unfold (combined trypsin and chymotrypsin); higher = more stable
recorded_metric: folding stability dG unfold (kcal/mol)
Give a bare numeral; the unit kcal/mol is implied.

Example entries begin here.
SAGGSAGGSNGDKKPPVKWEWVMIEIEIPPDDIDEIAEEFPGFSVNYERDNGHYRVNIMIPVPYSAGGSAGG [r6_686_TrROS]: 1.73
SAGDALKEAAKPGEEVTVRLRLTLTFTTETFTDDDGRERTVETVTVTVELEARVVAVDPETGELVIELRSAG [r5_5_TrROS_Hall]: 3.52
SAGGSAKIPVMFMIESPEQIIELVDEFAPPGHEVKVKIDNVEPFPMREDGEERPYYMFRVTIEFPPSAGGSA [r15_95_TrROS]: 1.78
SAGGSAGGSAGGSIVVRITPNPETGTVTIDVYRVLPPGVLRPGAGFTVPLSLIPPGAVVGSAGGSAGGSAGG [r7_455_TrMRF]: 1.09
SAGGSAGGSMETITLPEDVKVEVVEVEPGSVIEVEFEDGLVARVRIDPENLEKVEIEVFPKEESAGGSAGGS [r12_648_TrROS_Hall]: 0.694

Input: Suppose we examine the sequence SAGGSAGGSAGMEPIRVTVTTQDTATGTTTTTTVTVPTDVPVEAVLAALDPALVTAVTVESAGGSAGGSAGG [r11_386_JUSTAS] ; what folding stability dG unfold value has been reported?
Output: 0.808

Input: Try the sequence SAGGSAGGSAGPPIMVMVHKHDKEDGKPKIDESIPIDIPPDQQDKLKEEANERGYHVHPFSAGGSAGGSAGG [r17_18_TrROS]
Output: 0.158

Input: Try the sequence SAMTPEFFETIKEASREGDIAAVLEAAEAIKTEFPDTGLTVDVVIEPREDDRFVIEVRVDYPPNLEGLASAG [r14_690_TrMRF]
Output: -0.0704

Input: Try the sequence SMVEIKVEKKEDGTVKITIVAPLEKAEEIAKKLAEELGKEVKIVKIEKKKVKVNGEERELVKIEIEIRLPSA [r9_431_TrROS_Hall]
Output: 2.24

Input: Try the sequence SAGGSAGGSAMIETSVSLDPKNGLRKVTQNVTPEEYLKLTGGPPIPKENKTTVTLTKTLPVPSAGGSAGGSA [r18_327_JUSTAS]
Output: -0.726

====

Some sequences, each annotated with its measured folding stability dG unfold.
Assay: folding stability dG unfold from chymotrypsin proteolysis; higher = more stable
Give a bare numeral; the unit kcal/mol is implied.

Example entries begin here.
SAGGSAGGSAGMIVAKVVEYDPETGEITIEVDGKKITLPLKNMKIKEVNGYLVIEFKEDDSAGGSAGGSAGG [r17_403_TrROS_Hall]: 3.43
SAGGSAGGSWIILIHWPNGKEIPIFFKSPEEANEIAEEIKKIFQEKGMEPVSVEIYPIKPGQMSAGGSAGGS [r12_301_TrROS]: 2.26

Input: Suppose we examine the sequence SAGGSAGGSAGMTPGPAPRPKVTVEPSLSEVPEDDSIVTTTTVTFPDTGETTSSTTTSSASAGGSAGGSAGG [r17_31_JUSTAS] ; what folding stability dG unfold value has been reported?
Output: 1.24

Input: Try the sequence SEMSVEEILKKIAEELLKKNPNKEVTKEIEIEFEKPDPEGKRLLKEKVKATIKVTPDKIEILSESREILLSA [r9_361_JUSTAS]
Output: 1.07

Input: Try the sequence SAGGSAGGPVVISVPALVKLAKELGLKLVFFPETKTVILEHPDSFLIATIDSKGNVSIAPALPESAGGSAGG [r6_155_TrMRF]
Output: 2.59

Input: Try the sequence SAGGSAGGGSMSMPVTTKLVEEYTFPGTKEEAEEFLKKKLPPNYQVEITETPDSIKVKVYKVEGSAGGSAGG [r6_953_JUSTAS]
Output: 2.36

Input: Try the sequence PLTFPALVRNPLEDRWEEVTVTLHPDGTLTVTHRGRPLASVRVVTRPPPEVELVPVRDADGVERLGLRTRGS [r1_496_TrMRF]
Output: 1.21

Input: Try the sequence SAGGSAGGSAGPEVRIELERDEDGRLRLRATFKLEDGKEVRVEVEFDLKTKKLTVKIEPVSAGGSAGGSAGG [r11_107_TrROS_Hall]
Output: 4.8

Input: Try the sequence SAGGSAGGSTITITTVIEKDGELYVIEAKIEVTEVYYDKKTKKKVKVKVKIEIKIEKVPLEDLSAGGSAGGS [r12_809_TrROS_Hall]
Output: 3.28

Input: Try the sequence SAGEKVEITLVVKVEKDEDGRYRLTEEELREIAKALGLDFEVKSVEIERVPGYLVIRVTVDGKEYEFLSAGG [r19_398_TrROS_Hall]
Output: 3.04

Input: Try the sequence SAGDALKDLAPDVEITPSSFPFAFPPSRPVLAASIVAHPDNTITVFLTEVHPDGGARVLVYTLHLSDKSAGG [r19_125_TrMRF]
Output: 3.2

Input: Try the sequence SAGGSAGGSAGGSPSETLEVTLADGTRLTVTRNADGSLTVTVEPAPPPPVVVFKSPEELSAGGSAGGSAGGS [r4_120_TrROS_Hall]
Output: 0.623

Input: Try the sequence SAGGSAMVSLEEAKEATLREVKAALGFSPDATPEELRARGVPVRVPITVRDEKGNVIAELELELPGSAGGSA [r15_391_JUSTAS]
Output: 0.571

Input: Try the sequence SAGGSARYYFIVIEIWQPGKPVKFIIVVPKEDPKKFESEINEMFPGYNIDIKVIPFPSPEEAEDLFSAGGSA [r15_889_TrROS]
Output: 2.97
